Catalogue of variants with associated protein stability index
B1: SNAP91 (parent)
chain: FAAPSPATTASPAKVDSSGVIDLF

Variants of: B1
EXPERIMENT_NOTES: protein stability index of a GFP-peptide fusion (GPS, HEK-293T) (PSI 1-6); higher = more stable;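 also: lentivirally expressed fusions sorted by FACS into six bins by GFP to DsRed ratio, PSI derived from sequencing read proportions per bin multiplied by bin number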
CONDITION_DESCRIPTION: c terminus: a fixed tail appended
Number only, no unit.

>>> reported("FAAFSPATTASPAKVDSSGVIDLF [P4F]")
1.61
>>> reported("FAAPSPATTASPAKVDSSTVIDLF [G19T]")
2.57
>>> reported("QAAPSPATTASPAKVDSSGVIDLF [F1Q]")
4.28
>>> reported("FAAPSPATTAMPAKVDSSGVIDLF [S11M]")
2.28
>>> reported("FAAYSPATTASPAKVDSSGVIDLF [P4Y]")
1.38

Given FAAPSPATTASPAKEDSSGVIDLF [V15E] , respond with its protein stability index.
3.03
